Biological target: GMP-140 (Homo sapiens, UniProt P16109)
Sequence (P16109 42-830): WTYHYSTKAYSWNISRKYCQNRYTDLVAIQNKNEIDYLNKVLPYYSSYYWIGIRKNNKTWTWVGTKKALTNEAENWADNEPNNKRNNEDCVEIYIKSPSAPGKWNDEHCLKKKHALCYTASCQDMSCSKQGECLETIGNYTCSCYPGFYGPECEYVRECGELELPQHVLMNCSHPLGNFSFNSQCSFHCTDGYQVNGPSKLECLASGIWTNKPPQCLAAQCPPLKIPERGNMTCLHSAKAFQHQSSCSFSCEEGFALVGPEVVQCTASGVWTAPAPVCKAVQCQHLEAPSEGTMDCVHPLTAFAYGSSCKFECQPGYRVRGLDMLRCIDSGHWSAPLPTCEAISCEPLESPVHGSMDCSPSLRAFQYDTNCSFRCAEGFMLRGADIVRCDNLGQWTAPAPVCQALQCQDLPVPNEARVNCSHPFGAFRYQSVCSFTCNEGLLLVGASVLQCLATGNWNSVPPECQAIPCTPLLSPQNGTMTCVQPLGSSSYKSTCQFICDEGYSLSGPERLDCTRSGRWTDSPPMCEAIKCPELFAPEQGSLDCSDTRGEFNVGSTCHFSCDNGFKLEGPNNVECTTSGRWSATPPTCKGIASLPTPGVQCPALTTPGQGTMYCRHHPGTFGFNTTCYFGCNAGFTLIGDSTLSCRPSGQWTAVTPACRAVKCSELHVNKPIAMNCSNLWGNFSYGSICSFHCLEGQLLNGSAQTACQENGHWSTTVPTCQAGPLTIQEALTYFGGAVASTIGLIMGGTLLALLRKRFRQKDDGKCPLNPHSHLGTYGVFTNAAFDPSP
Test: ELISA of binding of biotinylated monoclonal antibodies G1, G2, G3 to immobilized GMP-140 with soluble peptide
Parameters: from tissue; host or cells: outdated human platelet packs (platelet lysate)
Conditions: 2 h; mAb G3 2.5 micrograms/ml; peptide 1.5 mM; read-out: % Binding of Biotinylated MAbs G3
Ends that are not written are not given here.
PROPERTY: remaining activity at 1500 µM (%)

>  <SUBSTANCE>
LKKKHAL [LECTIN 110-116]

>  <TARGET_OR_SYSTEM>
GMP-140 (Homo sapiens, UniProt P16109)

>  <NUMERIC_VALUE>
108

$$$$
>  <SUBSTANCE>
CQDDGK [SECRETORY 720-721/762-765, reference compound]

>  <TARGET_OR_SYSTEM>
GMP-140 (Homo sapiens, UniProt P16109)

>  <NUMERIC_VALUE>
104

$$$$
>  <SUBSTANCE>
YPGFYGPECEYVRE [EGF 145-158]

>  <TARGET_OR_SYSTEM>
GMP-140 (Homo sapiens, UniProt P16109)

>  <NUMERIC_VALUE>
108

$$$$
>  <SUBSTANCE>
YTASCQDMS [LECTIN/EGF 118-126]

>  <TARGET_OR_SYSTEM>
GMP-140 (Homo sapiens, UniProt P16109)

>  <NUMERIC_VALUE>
104

$$$$
>  <SUBSTANCE>
KDDGKCPLNPHSHLGTY [C-TERMINUS 761-777, reference compound]

>  <TARGET_OR_SYSTEM>
GMP-140 (Homo sapiens, UniProt P16109)

>  <NUMERIC_VALUE>
100

$$$$
>  <SUBSTANCE>
VEIYIKSPSAPGKWNDEH [LECTIN 91-108]

>  <TARGET_OR_SYSTEM>
GMP-140 (Homo sapiens, UniProt P16109)

>  <NUMERIC_VALUE>
96

$$$$
>  <SUBSTANCE>
RKRFRQK [TRANSMEMBRANE 755-761, reference compound]

>  <TARGET_OR_SYSTEM>
GMP-140 (Homo sapiens, UniProt P16109)

>  <NUMERIC_VALUE>
104

$$$$
>  <SUBSTANCE>
CSDTRGEFNVGST [REPEATS 544-556, reference compound]

>  <TARGET_OR_SYSTEM>
GMP-140 (Homo sapiens, UniProt P16109)

>  <NUMERIC_VALUE>
111

$$$$
>  <SUBSTANCE>
LETIGNYT [EGF 134-141]

>  <TARGET_OR_SYSTEM>
GMP-140 (Homo sapiens, UniProt P16109)

>  <NUMERIC_VALUE>
109

$$$$
